# System: Saccharomyces cerevisiae;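 also: PSI is a weighted mean of sequencing reads over stability bins, variants kept only with over 10 reads, mCherry proximal and sfGFP distal, peptide attached via GGGS linker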
# Method notes: protein stability index of tFT-peptide fusion (C-terminal peptide) (PSI (0-1 scale)); higher = more stable (slower turnover)
# Measurement conditions: genetic background: wild type; temperature: 30 C
Our labelling divides records by protein stability index into ranges: band 1 = under 0.3, band 2 = from 0.3 up to 0.4, band 3 = 0.4 and over

| Sequence entry | Category label |
| --- | --- |
| LPPPTPRSVLLN | band 2 |
| RGVPPPPWTPPP | band 3 |
| FLRWRVWVVVGW | band 1 |
| FIGVLVFSWLLF | band 1 |
| LFWWCMVFISLI | band 1 |
| TSFCIFFVRFVI | band 1 |
| VILCSCSFVLRP | band 2 |
| FSAVVCPTVFLC | band 1 |
| YALVQHRWVYYF | band 1 |
| FFIVGACAYVFA | band 1 |
| LFRGVWYYFLVR | band 3 |
| LLYPSKFCITAI | band 1 |
| LVLCCGFWFRAV | band 1 |
| FGSFVVWGVWWG | band 2 |
| ARVSLSFVSVSA | band 1 |
| GIFVRIVCIDVA | band 1 |
| FSIFFFLLPSSL | band 3 |
| GLSGFLLLIVLY | band 1 |
| YRLTIVWFFLAL | band 2 |
| CRLLVFGLCVGA | band 1 |
| LSARVFCFWFFS | band 1 |
| CRWHLRIVRGLM | band 1 |
| SGRATSSRTSEP | band 3 |
| VRSELHINSFIH | band 3 |
| RDGAHFLLILVC | band 1 |
| DLAWAIGRLTKG | band 3 |
| FSLWSRRSITVY | band 1 |
| MCVCLLVRVVPS | band 1 |
| IVGVLAVLVRPV | band 2 |
| SLCVVIFFSSIT | band 1 |
| GSRVICMVVATM | band 3 |
| QCLSYFFPVPVA | band 1 |
| SFIVGYRWNNRN | band 2 |
| GINYSNKKILVN | band 1 |
| LSPPPLSFPFSA | band 3 |
| LYSLRRNWLRTP | band 1 |
| LPSRWVPLPTPA | band 3 |
| FVVVGVLFLCVG | band 1 |
| LFYVCPFVCFLC | band 2 |
| CRFYIRITRRYS | band 1 |
| PSLPPLPPFAAL | band 3 |
